- System: HT-29
- ASSAY_PROCEDURE: Cytotoxicity against human HT-29 cells after 24 hrs by SRB assay
- Type: functional
- CONDITION_LABEL: HT-29, 24 h
EXPERIMENTAL_ENDPOINT: GI50 (µM)
Write the answer as a number in µM, unit excluded.

Worked examples follow.
Ask | Using known records, supply GI50 for `O=C(/C=C/c1cc2ccccc2[nH]c1=O)c1ccc(Cl)cc1`
Reply | 3.84

Ask | Using known records, supply GI50 for `COc1ccc(C(=O)/C=C/c2cc3ccccc3[nH]c2=O)cc1`
Reply | 3.67

Ask | Using known records, supply GI50 for `O=C(/C=C/c1cc2ccccc2[nH]c1=O)/C=C/c1cc2ccccc2[nH]c1=O`
Reply | 0.483

Next:
Ask | Using known records, supply GI50 for `O=C(/C=C/c1cc2ccccc2[nH]c1=O)c1ccc(O)cc1`
Reply | 3.61
